Test system: human platelet rich plasma (platelet aggregation)
Assay: platelet aggregation (PA) inhibition assay in human platelet rich plasma
Assay type: cell-based
Settings: Platelet, read-out: IC50 PA(heparin)
Quantity name: IC50 (nM)
Numbers only, in nM.

Cc1cnc2n1-c1ccc(OCc3ccc(C(=N)N)cc3)cc1C(=O)N(CCC(=O)O)C2 = 220

In the following, a different molecule is considered.
Task: So what's the measured IC50 for this one? Cc1cnc2n1-c1ccc(C#Cc3ccc(C(=N)N)cc3)cc1C(=O)N(CCC(=O)O)C2
Output: 240

---

Target: human platelet GPIIbIIIa receptor (Homo sapiens, UniProt P05106+P08514)
Construct: purified human platelet GPIIbIIIa receptor; from tissue; host or cells: human platelets (purified, solubilized receptor)
Sequence (P08514 32-887 limits assumed): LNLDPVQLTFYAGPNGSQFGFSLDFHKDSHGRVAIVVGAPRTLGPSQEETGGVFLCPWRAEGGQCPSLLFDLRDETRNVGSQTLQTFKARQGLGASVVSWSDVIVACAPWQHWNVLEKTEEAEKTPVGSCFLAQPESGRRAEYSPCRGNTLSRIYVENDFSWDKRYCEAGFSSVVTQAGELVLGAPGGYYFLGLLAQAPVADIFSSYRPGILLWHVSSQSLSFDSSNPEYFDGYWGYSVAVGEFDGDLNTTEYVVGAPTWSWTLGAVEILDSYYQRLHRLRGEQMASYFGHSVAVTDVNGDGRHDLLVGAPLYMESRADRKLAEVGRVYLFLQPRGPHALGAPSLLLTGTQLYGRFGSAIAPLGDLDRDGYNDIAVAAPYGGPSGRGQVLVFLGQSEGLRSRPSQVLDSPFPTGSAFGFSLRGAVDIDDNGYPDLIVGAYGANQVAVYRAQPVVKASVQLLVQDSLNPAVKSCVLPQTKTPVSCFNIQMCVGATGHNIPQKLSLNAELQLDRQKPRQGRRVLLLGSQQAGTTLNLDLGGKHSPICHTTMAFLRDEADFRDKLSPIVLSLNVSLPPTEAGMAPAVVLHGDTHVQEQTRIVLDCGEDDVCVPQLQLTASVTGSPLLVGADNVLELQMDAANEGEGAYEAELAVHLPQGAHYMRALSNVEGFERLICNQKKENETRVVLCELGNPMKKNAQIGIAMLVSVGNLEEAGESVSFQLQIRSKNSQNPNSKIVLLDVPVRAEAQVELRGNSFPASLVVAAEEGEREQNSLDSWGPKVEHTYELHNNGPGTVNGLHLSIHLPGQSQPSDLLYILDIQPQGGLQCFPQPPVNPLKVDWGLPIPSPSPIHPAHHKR
Sequence (P08514 891-1039 limits assumed): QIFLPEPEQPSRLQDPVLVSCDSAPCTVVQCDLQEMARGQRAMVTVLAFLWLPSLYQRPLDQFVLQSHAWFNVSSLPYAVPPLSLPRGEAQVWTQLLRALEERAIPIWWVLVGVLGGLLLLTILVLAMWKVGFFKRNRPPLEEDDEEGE
Sequence (P05106 27-788): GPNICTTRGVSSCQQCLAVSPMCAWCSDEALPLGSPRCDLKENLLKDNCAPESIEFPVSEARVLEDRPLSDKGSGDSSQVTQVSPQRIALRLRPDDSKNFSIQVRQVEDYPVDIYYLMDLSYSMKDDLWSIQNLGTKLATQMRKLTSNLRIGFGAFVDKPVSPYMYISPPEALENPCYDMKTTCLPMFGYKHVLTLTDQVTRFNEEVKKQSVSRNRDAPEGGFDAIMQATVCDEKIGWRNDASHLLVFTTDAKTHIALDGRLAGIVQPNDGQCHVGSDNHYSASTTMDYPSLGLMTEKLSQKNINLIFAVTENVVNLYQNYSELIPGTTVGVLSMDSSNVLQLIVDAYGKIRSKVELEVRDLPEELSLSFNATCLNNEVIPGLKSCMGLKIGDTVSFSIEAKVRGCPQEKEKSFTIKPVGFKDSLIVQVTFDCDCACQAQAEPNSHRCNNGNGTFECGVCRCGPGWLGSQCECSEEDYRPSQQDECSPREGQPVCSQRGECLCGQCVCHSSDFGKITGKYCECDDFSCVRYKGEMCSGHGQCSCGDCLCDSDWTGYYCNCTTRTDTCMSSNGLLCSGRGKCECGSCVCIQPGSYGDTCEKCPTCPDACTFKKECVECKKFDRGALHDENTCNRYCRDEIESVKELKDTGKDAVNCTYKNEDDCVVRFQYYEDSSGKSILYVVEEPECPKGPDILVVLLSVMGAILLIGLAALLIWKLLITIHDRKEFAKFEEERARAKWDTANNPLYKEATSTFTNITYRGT
Experiment: modified fibrinogen-GPIIbIIIa ELISA (inhibition of fibrinogen binding to purified human platelet GPIIbIIIa receptor)
Settings: ELISA; read-out: IC50 Fg/IIbIIIa
Task for the reader: assign each of the following compounds its reported pIC50.
Answers are plain numbers, as −log10 of the molar value.

Cc1cnc2n1-c1ccc(C#Cc3ccc(C(=N)N)cc3)cc1C(=O)N(CCC(=O)O)C2 [p-H2 N(NH)CC6 H4 CC] = 8.40
Cc1cnc2n1-c1ccc(C#CCCCCN)cc1C(=O)N(CCC(=O)O)C2 [H2 N(CH2)4 CC] = 7.24

In the following, a different compound is considered.
Task: So what's the measured pIC50 for this one? Cc1cnc2n1-c1ccc(OCc3ccc(C(=N)N)cc3)cc1C(=O)N(CCC(=O)O)C2 [p-H2 N(NH)CC6 H4 CH2 O]
Output: 8.05
